PROCEDURE DETAILS: Cytotoxicity against human MCF10A cells after 48 hrs by SRB assay
Assay type: cell-based, MCF-10A
Listing of entries alongside the reported GI50 at 48 h.
Please reply with the bare figure in µM and do not write the unit itself.

CN(C)CN1C(=O)C(=O)c2c(Cl)cccc21: 82.3
Cc1ccc2nc(/N=C3\C(=O)N(CN(C)C)c4cccc(Cl)c43)sc2c1: 7.02

Problem: For the compound shown here, CCN(CC)CN1C(=O)C(=O)c2c(Cl)cccc21 , give the reported GI50 at 48 h.
Result: 35

====

Listing of entries alongside the reported GI50 at 48 h.
PROCEDURE DETAILS: Cytotoxicity against human 184B5 cells after 48 hrs by SRB assay
Assay type: cell-based
Please reply with the bare figure in µM and do not write the unit itself.

A selection of reference data follows.
Cc1ccc2nc(/N=C3\C(=O)N(CN4CCCCC4)c4ccccc43)sc2c1: 34.9
Cc1ccc2nc(/N=C3\C(=O)N(CN(C)C)c4cccc(Br)c43)sc2c1: 74.8

Okay, now this molecule:
Problem: For the molecule shown here, CN(C)CN1C(=O)C(=O)c2ccccc21 , give the reported GI50 at 48 h.
Result: 73.7
